Documented exon inclusion enrichment index across a set of variants
B1: mRNA-splicing (parent)
chain: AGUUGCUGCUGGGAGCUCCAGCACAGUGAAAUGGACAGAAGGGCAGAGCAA

Variants of: B1
Test: exon inclusion enrichment index; higher = more inclusion; WT1 exon 5 minigene, HEK293
Answer field: number only, no words.

QUERY SEQUENCE	exon inclusion enrichment index
AGUUGCUGCUGGGAGCUCCAGCACAGUGAAAUGGACAGAAGGGCAGUGCAA [A47U]	0.105
AGUUAUCCAUGGGAGCUCCAGCACAGUGAAAUGGACAGAAGGGCAGAGCAA [G5A C6U U7C G8C C9A]	1.04
AGUUCGCGCCGGGAGCUCCAGCACAGUGAAAUGGCGAGAAGGGCAGAGCAA [G5C C6G U7C U10C A35C C36G]	2.6
AGUUAUAUAUGGGAGCUCCAGCACAGUGAAAUGGACAGAAGGGCAGGCCAA [G5A C6U U7A G8U C9A A47G G48C]	0.0173
AGUUAUAUAUGGGAGCUCCAGCACAGUGAAAUGGACAGAAGGGAUGAGCAA [G5A C6U U7A G8U C9A C44A A45U]	0.189

Ask | // returns reported exon inclusion enrichment index for input AGUUUCUUUUGGGAGCUCCAGCACAGUGAAAUUAACAGAAGGGCAGAGCAA [G5U G8U C9U G33U G34A]
Reply | 0.00858
